meta.source: patent US8440708B2

Recorded Ki for the following molecules
molecular target: rat P2X3 receptor (Rattus norvegicus); construct: expressed in transfected cells; host or cells: CHO-K1; experiment: P2X3/P2X2/3 FLIPR (Fluorometric Imaging Plate Reader) Assay, P2X3; assay type: cell-based; conditions: CHO-K1 cells transfected with rat P2X3; agonist α,β-meATP 1 μM; Table 1; read-out: P2X3 pKi (converted)
Sequence (P49654 whole entry): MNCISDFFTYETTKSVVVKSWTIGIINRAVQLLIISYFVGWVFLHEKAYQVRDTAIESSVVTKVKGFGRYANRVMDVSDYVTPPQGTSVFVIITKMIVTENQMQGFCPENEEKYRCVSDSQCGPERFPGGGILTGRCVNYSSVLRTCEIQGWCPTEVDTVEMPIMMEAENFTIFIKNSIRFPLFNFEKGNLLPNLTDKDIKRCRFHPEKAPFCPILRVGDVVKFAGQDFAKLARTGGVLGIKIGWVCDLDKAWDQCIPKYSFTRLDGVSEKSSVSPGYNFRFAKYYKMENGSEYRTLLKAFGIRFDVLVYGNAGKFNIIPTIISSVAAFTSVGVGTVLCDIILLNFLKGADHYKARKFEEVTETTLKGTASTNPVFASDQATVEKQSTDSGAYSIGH
measurement name: Ki (nM)

INSERT INTO measurements (molecule, measurement_name, val) VALUES
  ('CC(C)Oc1ncnn1-c1cc(C(=O)NC(C)c2cnccn2)cc(-c2ccc(Cl)cc2)c1 (stereo not drawn)', 'Ki', 14.1),
  ('Cc1ccc(-c2cc(C(=O)N[C@H](C)CN3CCOCC3)cc(-n3ncnc3C(F)(F)F)c2)nc1', 'Ki', 24.5),
  ('COc1nnc(C(C)C)n1-c1cc(C(=O)NCc2cnc(C)cn2)cc(-c2ccc(C)cc2)c1', 'Ki', 724);
